These measurements were taken from patent US11001600B2.

target: Human Factor D (Homo sapiens (Human)); assay: Human Factor D assay; assay type: biochemical
Sequence (P00746 26-253): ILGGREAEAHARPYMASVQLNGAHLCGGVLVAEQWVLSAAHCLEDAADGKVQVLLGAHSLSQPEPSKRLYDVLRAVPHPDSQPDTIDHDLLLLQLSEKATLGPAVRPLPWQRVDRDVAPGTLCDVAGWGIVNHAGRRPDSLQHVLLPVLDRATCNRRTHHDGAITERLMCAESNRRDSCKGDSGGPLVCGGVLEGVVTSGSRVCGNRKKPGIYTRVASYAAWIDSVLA
pIC50: −log10 of the molar value.
outcome_measure: pIC50

Q. Query: pIC50; subject: CC(C)(C)OC(=O)N=S(C)(=O)c1cccc(-c2cccc(NC(=O)[C@@H]3C[C@@H](F)CN3C(=O)Cn3nc(C(N)=O)c4ccccc43)c2F)c1 (stereo partly shown)
A. 5.00 to 6.00
